test system: S. aureus 209P NIHJ-JC1; assay: in vitro antibacterial activity, agar plate dilution method (MIC); type: cell-based; settings: Staphylococcus aureus, 16 h, read-out: Minimum Inhibitory Concentration (MIC), S. aureus 209P NIHJ-JC1; 10^6 CFU/ml, 37° C., 16 hours
Overview of reported MIC across a group of compounds:
Write the number in µg/mL without appending the unit.

The compound listed as CON=C(C(=O)NC1C(=O)N2C(C(=O)O)=C(CSc3ncc(-c4ccc(O)c(O)c4)o3)CSC12)c1csc(N)n1 (stereo not drawn) [Ex. 62] shows MIC equal to 1.56

The compound listed as CO/N=C(\C(=O)N[C@@H]1C(=O)N2C(C(=O)O)=C(CSc3nnc(-c4ccc(O)c(O)c4)s3)CS[C@H]12)c1csc(N)n1 [Ex. 25] shows MIC equal to 0.78

The compound listed as CO/N=C(\C(=O)N[C@@H]1C(=O)N2C(C(=O)O)=C(CSc3nnc(-c4ccc(O)cc4)o3)CS[C@H]12)c1csc(N)n1 [compound 2, reference compound] shows MIC equal to 0.78
